Target: human cathepsin F (Homo sapiens)
Assay: Cathepsin F Assay
Assay type: biochemical
Details: IP from dose response curve; Z-Phe-Arg-AMC substrate, pH 5.5; read-out: hCat F (IP (nM))
So basically, if IC50 comes in under 400 nM it's MET, and if it's 400 nM or more it's NOT MET.

{"columns": ["compound", "classification"],
 "data": [
  ["CC(C)[C@@H](C#N)NC(=O)[C@@H]1CC(F)(F)CC[C@H]1c1nn2ccccc2c1-c1ccc(N2CCS(=O)(=O)CC2)cc1 [Example 73]", "MET"],
  ["CC(C)(O)c1cccc(-n2cc(-c3ccc(N4CCS(=O)(=O)CC4)cc3)c([C@@H]3CCCC[C@H]3C(=O)NC3(C#N)CC3)n2)c1 [Example 96]", "NOT MET"],
  ["N#Cc1ccc(-n2cc(-c3ccc(N4CCS(=O)(=O)CC4)cc3)c([C@@H]3CCCC[C@H]3C(=O)NC3(C#N)CC3)n2)cc1 [Example 100]", "MET"],
  ["N#CC1(NC(=O)[C@@H]2CCCC[C@H]2c2nn(-c3ccc(F)cc3)cc2-c2ccc(C3CN(C(=O)NCC(F)(F)F)C3)cc2)CC1 [Example 136]", "MET"],
  ["N#CC1(NC(=O)[C@@H]2CCCC[C@H]2c2nn(-c3c(F)cccc3F)cc2-c2ccc(N3CCS(=O)(=O)CC3)cc2)CC1 [Example 133]", "NOT MET"],
  ["N#CC1(NC(=O)[C@@H]2CC3CC3C[C@H]2c2nn(-c3ccc(F)cn3)cc2-c2ccc(N3CCS(=O)(=O)CC3)cc2)CC1 (single isomer, unassigned) [Example 153]", "MET"]
]}

Is 400 nM strictly greater than the compound's reported IC50? compound: C[C@@H](C#N)NC(=O)[C@@H]1CCCC[C@H]1c1nn(-c2ccc(F)cc2)c(CO)c1-c1ccc(N2CCS(=O)(=O)CC2)cc1 [Example 64]
NOT MET

Is 400 nM strictly greater than the compound's reported IC50? compound: CC(=O)N1CC(c2ccc(-c3cn(-c4ccc(F)cc4)nc3[C@@H]3CCCC[C@H]3C(=O)NC3(C#N)CC3)cc2)C1 [Example 134]
MET

Is 400 nM strictly greater than the compound's reported IC50? compound: N#CC1(NC(=O)[C@@H]2CC(F)(F)CC[C@H]2c2nn3ccccc3c2-c2ccc(N3CCS(=O)(=O)CC3)cc2)CC1 [Example 28]
MET

Is 400 nM strictly greater than the compound's reported IC50? compound: N#CC1(NC(=O)[C@@H]2CCCC[C@H]2c2nn(-c3ccc(F)cn3)cc2-c2ccc(N3CCS(=O)(=O)CC3)cc2)CC1 [Example 145]
NOT MET

Is 400 nM strictly greater than the compound's reported IC50? compound: CN=S1(=O)CCN(c2ccc(-c3cn(-c4ccc(F)cc4)nc3[C@@H]3CCCC[C@H]3C(=O)NC3(C#N)CC3)cc2)CC1 [Example 130]
NOT MET

Is 400 nM strictly greater than the compound's reported IC50? compound: N#CC1(NC(=O)[C@@H]2CCCC[C@H]2c2nn(-c3ccc(C(O)(C(F)(F)F)C(F)(F)F)cc3)cc2-c2ccc(N3CCS(=O)(=O)CC3)cc2)CC1 [Example 109]
MET

###

Molecular target: human cathepsin F (Homo sapiens, UniProt Q9UBX1)
Sequence (Q9UBX1 271-484): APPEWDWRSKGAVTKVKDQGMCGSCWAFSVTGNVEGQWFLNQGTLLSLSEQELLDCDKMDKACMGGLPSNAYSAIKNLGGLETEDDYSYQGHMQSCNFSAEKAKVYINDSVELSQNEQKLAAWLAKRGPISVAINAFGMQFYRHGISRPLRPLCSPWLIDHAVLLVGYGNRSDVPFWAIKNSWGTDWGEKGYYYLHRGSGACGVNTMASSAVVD
Assay: Cathepsin F Assay
Assay type: biochemical
Conditions: IP from dose response curve; Z-Phe-Arg-AMC substrate, pH 5.5; read-out: hCat F (IP (nM))
Method: Serial dilutions (1/3) from 500 μM down to 0.025 μM of test compounds were prepared in dimethyl sulfoxide (DMSO). Then 0.5 μL of DMSO from each dilution were added to 18.75 μL of assay buffer (MES, 50 mM (pH 5.5); EDTA, 2.5 mM; DTT, 2.5 mM and 10% DMSO) containing human cathepsin F (10 nM) in assay buffer solution. […] Percent of inhibition were calculated by fitting experimental values to standard mathematical model for dose response curve.
measuredMetric: IC50
Express your answer as a number followed by its unit.

In the examples that follow, each entry is paired with its recorded IC50.
{"columns": ["molecule", "IC50"],
 "data": [
  ["COc1ccc(-n2cc(-c3ccc(N4CCS(=O)(=O)CC4)cc3)c([C@@H]3CCCC[C@H]3C(=O)NC3(C#N)CC3)n2)cc1 [Example 87]", "740 nM"],
  ["N#CC1(NC(=O)[C@@H]2CC(F)(F)CC[C@H]2c2nn(-c3ccc(F)cc3)cc2-c2ccc(N3CCS(=O)(=O)CC3)cc2)CC1 [Example 83]", "28 nM"],
  ["N#CC1(NC(=O)[C@@H]2CCCC[C@H]2c2nn(-c3ccc(F)cc3F)cc2-c2ccc(N3CCS(=O)(=O)CC3)cc2)CC1 [Example 131]", "1540 nM"],
  ["N#CC1(NC(=O)[C@@H]2CCCC[C@H]2c2nn(-c3ccc(C(O)C(F)(F)F)cc3)cc2-c2ccc(N3CCS(=O)(=O)CC3)cc2)CC1 (mixture of isomers) [Example 113]", "360 nM"],
  ["C[C@@H](C#N)NC(=O)[C@@H]1CC(F)(F)CC[C@H]1c1nn(-c2ccc(F)cc2)c(CO)c1-c1ccc(N2CCS(=O)(=O)CC2)cc1 [Example 61]", "121 nM"],
  ["N#CC1(NC(=O)[C@@H]2CCCC[C@H]2c2nn(-c3ccc(F)cc3)cc2-c2ccc(N3CCS(=O)(=NCC(F)(F)F)CC3)cc2)CC1 [Example 141]", "816 nM"],
  ["N#CC1(NC(=O)[C@@H]2CC3CC3C[C@H]2c2nn(-c3ccc(F)cc3)cc2-c2ccc(N3CCS(=O)(=O)CC3)cc2)CC1 (single isomer, unassigned) [Example 3]", "333 nM"],
  ["N#Cc1cc(-n2cc(-c3ccc(N4CCS(=O)(=O)CC4)cc3)c([C@@H]3CCCC[C@H]3C(=O)NC3(C#N)CC3)n2)ccc1F [Example 110]", "275 nM"],
  ["N#CC1(NC(=O)[C@@H]2CCCC[C@H]2c2nn(-c3ccccc3OC(F)(F)F)cc2-c2ccc(N3CCS(=O)(=O)CC3)cc2)CC1 [Example 125]", "836 nM"]
]}

--- query ---
Look up and report IC50, with human cathepsin F (Homo sapiens, UniProt Q9UBX1) as system, for N#CC1(NC(=O)[C@@H]2CCCC[C@H]2c2nn(-c3ccccc3Cl)cc2-c2ccc(N3CCS(=O)(=O)CC3)cc2)CC1 [Example 102]
643 nM
